B1: NLV2 TCR alpha chain (CDR3α only) (parent)
chain: AGPMKTSYDKVI

variants of: B1; assay: T-Switch: Jurkat TCRβ−/− cells expressing a CDR3 saturation-mutagenesis library, stained with two peptide-HLA-A*02:01 tetramers (original and novel peptide) plus anti-CD3, FACS-sorted into four gates, gDNA sequenced; details: with both tetramers (double-negative gate, binds neither): HLA-A*02:01 with … and with …, tetramers 1 µg/mL, 30 min on ice, SP, DP and SW gates expanded about 10 days between rounds ('two to three rounds of selection' in the Methods), gate DN: OPPOSITE: higher = more of the variant in the gate that binds neither peptide = LESS binding (or no expression; inferred). Fold enrichment of the CDR3 variant in one FACS gate of a two-tetram, unresolved parent, parent is a CDR3 fragment, scale: fold enrichment, numbering: sequential-on-construct, sequence starts at 1
Lab note: anything with enrichment at or over 0.9 counts as Y; the rest go in N.

Answered cases to consult:
Decide: enrichment of […] (CDR3 as printed); P3Y derived by comparing it with the table's wild-type CDR3 AGPMKTSYDKVI >= 0.9?
Y

Decide: enrichment of […] (CDR3 as printed); S7A derived by comparing it with the table's wild-type CDR3 AGPMKTSYDKVI >= 0.9?
Y

Decide: enrichment of […] (CDR3 as printed); K5T derived by comparing it with the table's wild-type CDR3 AGPMKTSYDKVI >= 0.9?
N

Decide: enrichment of […] (CDR3 as printed); A1K derived by comparing it with the table's wild-type CDR3 AGPMKTSYDKVI >= 0.9?
Y

Decide: enrichment of […] (CDR3 as printed); A1N derived by comparing it with the table's wild-type CDR3 AGPMKTSYDKVI >= 0.9?
N

More entries:
Decide: enrichment of […] (CDR3 as printed); A1C derived by comparing it with the table's wild-type CDR3 AGPMKTSYDKVI >= 0.9?
N

Decide: enrichment of […] (CDR3 as printed); K5F derived by comparing it with the table's wild-type CDR3 AGPMKTSYDKVI >= 0.9?
N

Decide: enrichment of […] (CDR3 as printed); M4L derived by comparing it with the table's wild-type CDR3 AGPMKTSYDKVI >= 0.9?
Y

Decide: enrichment of […] (CDR3 as printed); M4F derived by comparing it with the table's wild-type CDR3 AGPMKTSYDKVI >= 0.9?
Y

Decide: enrichment of […] (CDR3 as printed); S7Q derived by comparing it with the table's wild-type CDR3 AGPMKTSYDKVI >= 0.9?
Y

Decide: enrichment of […] (CDR3 as printed); P3M derived by comparing it with the table's wild-type CDR3 AGPMKTSYDKVI >= 0.9?
Y

Decide: enrichment of […] (CDR3 as printed); P3G derived by comparing it with the table's wild-type CDR3 AGPMKTSYDKVI >= 0.9?
Y

Decide: enrichment of […] (CDR3 as printed); S7L derived by comparing it with the table's wild-type CDR3 AGPMKTSYDKVI >= 0.9?
Y

Decide: enrichment of […] (CDR3 as printed); T6H derived by comparing it with the table's wild-type CDR3 AGPMKTSYDKVI >= 0.9?
Y

Decide: enrichment of […] (CDR3 as printed); Y8A derived by comparing it with the table's wild-type CDR3 AGPMKTSYDKVI >= 0.9?
N

Decide: enrichment of […] (CDR3 as printed); P3H derived by comparing it with the table's wild-type CDR3 AGPMKTSYDKVI >= 0.9?
Y

Decide: enrichment of […] (CDR3 as printed); G2E derived by comparing it with the table's wild-type CDR3 AGPMKTSYDKVI >= 0.9?
N

Decide: enrichment of […] (CDR3 as printed); K10G derived by comparing it with the table's wild-type CDR3 AGPMKTSYDKVI >= 0.9?
Y

Decide: enrichment of […] (CDR3 as printed); I12K derived by comparing it with the table's wild-type CDR3 AGPMKTSYDKVI >= 0.9?
N

Decide: enrichment of […] (CDR3 as printed); S7F derived by comparing it with the table's wild-type CDR3 AGPMKTSYDKVI >= 0.9?
Y

Decide: enrichment of […] (CDR3 as printed); V11G derived by comparing it with the table's wild-type CDR3 AGPMKTSYDKVI >= 0.9?
Y

Decide: enrichment of […] (CDR3 as printed); K10M derived by comparing it with the table's wild-type CDR3 AGPMKTSYDKVI >= 0.9?
Y

Decide: enrichment of […] (CDR3 as printed); D9C derived by comparing it with the table's wild-type CDR3 AGPMKTSYDKVI >= 0.9?
N

Decide: enrichment of […] (CDR3 as printed); D9I derived by comparing it with the table's wild-type CDR3 AGPMKTSYDKVI >= 0.9?
Y
